Several reports have described IC50 for UniProt O39930; a selection of those results is presented here.
Use nM as the unit, but write only the number.

{"chemical.smiles": "CCCOc1ccccc1C(=O)CC(=O)C(=O)O", "IC50 / nM": 3900}
{"chemical.smiles": "O=C(O)/C(=C/c1ccc(Oc2ccccc2Br)cc1)NC(=O)c1ccccc1", "IC50 / nM": 100}
{"chemical.smiles": "O=C(O)[C@H](Cc1ccccc1)N(Cc1ccc[n+]([O-])c1)C(=O)c1ccc(Cl)cc1Cl", "IC50 / nM": 2700}
{"chemical.smiles": "CC(C)(C)[C@H]1C(O)=C(C2=NS(=O)(=O)c3ccccc3N2)C(=O)N1Cc1ccccc1", "IC50 / nM": 22}

Now for the compound whose IC50 we want.
Ask | Value wanted: IC50 (UniProt O39930) of entry `O=C(O)C(=O)/C=C(\O)c1cc(O)cc(OCc2ccccc2)c1`
Reply | 1400
